- assayedTarget: GlcNAc(b1-3)Gal(b1-4)GlcNAc(b1-3)Gal(b1-4)GlcNAc(b1-3)GalNAc
- protocolText: glycan array binding signal (z-score within array); higher = stronger binding
- experimentalParameters: glycan notation: IUPAC condensed, linker removed
This is one part of a sample in which the strongest signals are shown more often than they occur.
parameterMeasured: glycan array binding signal (z-score)
Reply with the value as a number alone.

In the examples that follow, each entry is paired with its recorded glycan array binding signal (z-score).
AFL6 (Aspergillus fumigatus), Q4WKJ1 (protein) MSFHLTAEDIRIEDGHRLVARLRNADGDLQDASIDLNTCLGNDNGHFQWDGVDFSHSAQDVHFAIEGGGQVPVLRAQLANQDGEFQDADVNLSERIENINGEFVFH
-0.176
Wzz (Escherichia coli) (protein) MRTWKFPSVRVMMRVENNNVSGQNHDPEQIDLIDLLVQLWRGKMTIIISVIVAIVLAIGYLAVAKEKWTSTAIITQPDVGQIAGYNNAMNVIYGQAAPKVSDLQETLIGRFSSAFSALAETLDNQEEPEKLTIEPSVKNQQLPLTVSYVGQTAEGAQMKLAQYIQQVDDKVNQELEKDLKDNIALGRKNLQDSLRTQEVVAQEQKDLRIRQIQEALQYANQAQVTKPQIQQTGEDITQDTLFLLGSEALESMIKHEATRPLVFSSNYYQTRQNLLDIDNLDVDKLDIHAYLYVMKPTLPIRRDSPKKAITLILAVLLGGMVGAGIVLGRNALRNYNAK
0.801
EfCBM33A (Enterococcus faecalis), Q838S1 (protein) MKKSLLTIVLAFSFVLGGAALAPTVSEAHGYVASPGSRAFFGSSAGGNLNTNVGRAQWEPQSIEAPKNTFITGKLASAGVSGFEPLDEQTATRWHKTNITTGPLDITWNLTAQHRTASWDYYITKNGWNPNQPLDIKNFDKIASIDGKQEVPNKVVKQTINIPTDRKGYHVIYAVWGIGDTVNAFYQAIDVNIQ
0.242

Then there is this binder:
// glycan array binding signal (z-score) value for Pwp4 (Candida glabrata) (protein) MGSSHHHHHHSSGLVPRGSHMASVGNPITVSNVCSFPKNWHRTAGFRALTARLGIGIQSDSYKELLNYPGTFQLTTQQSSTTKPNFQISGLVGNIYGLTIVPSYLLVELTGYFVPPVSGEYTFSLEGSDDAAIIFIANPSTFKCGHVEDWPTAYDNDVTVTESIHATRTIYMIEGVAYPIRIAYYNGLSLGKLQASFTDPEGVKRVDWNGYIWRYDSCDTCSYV : -0.617
